Target: ERβ (Homo sapiens)
Sequence (Q92731 whole entry): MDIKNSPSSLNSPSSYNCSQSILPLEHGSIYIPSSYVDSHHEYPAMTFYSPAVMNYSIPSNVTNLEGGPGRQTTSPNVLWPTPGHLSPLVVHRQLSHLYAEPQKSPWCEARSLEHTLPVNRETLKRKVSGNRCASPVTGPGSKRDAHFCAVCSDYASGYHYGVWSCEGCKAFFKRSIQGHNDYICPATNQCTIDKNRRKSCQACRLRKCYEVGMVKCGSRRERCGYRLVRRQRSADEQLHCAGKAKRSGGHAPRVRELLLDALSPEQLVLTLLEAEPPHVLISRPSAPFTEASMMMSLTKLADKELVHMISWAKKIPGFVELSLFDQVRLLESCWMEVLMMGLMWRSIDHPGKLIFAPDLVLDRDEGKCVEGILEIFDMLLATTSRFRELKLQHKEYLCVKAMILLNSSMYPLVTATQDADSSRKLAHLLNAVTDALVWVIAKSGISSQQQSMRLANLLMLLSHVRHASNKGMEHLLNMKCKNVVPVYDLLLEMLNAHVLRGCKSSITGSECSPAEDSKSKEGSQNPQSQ
Experiment: ERβ reporter (luciferase) transactivation assay in transfected HEK293 cells
Format: cell-based
Parameters: expressed in transfected cells; host or cells: HEK293
Conditions: sample concentration 10 μM, 24 hours, mean of at least three independent transfections
Reported ERβ receptor activation relative to 10 nM E2 corresponding 100 by item:
Readout label: ERβ receptor activation relative to 10 nM E2 corresponding 100 (%)

INSERT INTO assay_data (molecule, recorded_number) VALUES
  ('COc1ccc(CCCC2=NOC(c3ccccc3)C2)cc1 (single isomer, unassigned) [72a]', '−5.8'),
  ('Oc1ccc(CCC2=NOC(Cc3ccc(F)cc3)C2)cc1 (single isomer, unassigned) [98b]', 4.4),
  ('COc1ccc(CC2CC(CCc3ccccc3)=NO2)cc1 (single isomer, unassigned) [65a]', 10.6),
  ('Oc1ccc(CCCC2=NOC(Cc3ccc(O)cc3)C2)cc1 (single isomer, unassigned) [101b]', 10.6);
